B1: tRNA (parent)
chain: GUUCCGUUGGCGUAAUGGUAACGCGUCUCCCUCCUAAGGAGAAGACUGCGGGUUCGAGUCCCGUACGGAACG

- Variants of: B1
- Experiment summary: yeast fitness relative to wild type (ratio to wild type); higher = fitter; tRNA-Arg(CCU), competitive growth, 37 C, YPD
Variants at the floor of the assay were thinned out.
Observation type: yeast fitness

1. C11U C22G U28A C31G C55A G68C = ≤ 0.5
2. C11U A42C C49G = ≤ 0.5
3. C4A A20U U28A C31U A65U = ≤ 0.5
4. C46G C55G A69G = ≤ 0.5
5. G25C U26G C46G C62G = ≤ 0.5
6. G6C G18C A21G A40U C49U = ≤ 0.5
7. C11A G18A G67A = ≤ 0.5
8. U8A A42U C62A A70C = ≤ 0.5
9. C5G A20C C27G C49U U53A = 0.568
10. C31U G58C U59G C61G = ≤ 0.5
11. A21U G25A C60U G68U = ≤ 0.5
12. U2A A37U U53A C62U = ≤ 0.5
13. C30A A37U G44C U53A = ≤ 0.5
14. G6A A14U C31G G38A = ≤ 0.5
15. C5G C49G U53A = ≤ 0.5
16. U16A U54G = 0.536
17. C55G A70U = 0.653
18. A37G A42G C49A = ≤ 0.5
19. C22G C27A A43C = 0.587
20. U7G C61U A70G = 0.669
21. U13C A14G = 0.704
22. U3G C11U U47A G48C = 0.675
23. U8A C31U A37G = ≤ 0.5
24. C34A U64C = 0.834
25. U7G A15U C62U C66A = ≤ 0.5
26. G6C U7A C46U = 0.577
27. U2C G18A U28C A42C G56C A65C = 0.61
28. A21C C31A C33G A45G G48A = 0.579
29. G12A A21G A40U = 0.564
30. C4A G12A C31U U59A G63A = ≤ 0.5
31. C33G G38C C46A = 0.551
32. U19G C61U = 0.77
33. C11A A21G C31G A36U A65U = ≤ 0.5
34. C11A C29A = ≤ 0.5
35. C22U A37C G52C C62U = ≤ 0.5
36. C4U A43G C49U G68A = ≤ 0.5
